ASSAYED_TARGET: wild-type human ALK (cytoplasmic domain, amino acids 1058-1620, N-terminal GST fusion) (Homo sapiens)
Construct: The cytoplasmic domain (amino acids 1058-1620) of wild-type human ALK; GST (N); made in house; host or cells: SF9 insect cells
Sequence (Q9UM73 1058-1620): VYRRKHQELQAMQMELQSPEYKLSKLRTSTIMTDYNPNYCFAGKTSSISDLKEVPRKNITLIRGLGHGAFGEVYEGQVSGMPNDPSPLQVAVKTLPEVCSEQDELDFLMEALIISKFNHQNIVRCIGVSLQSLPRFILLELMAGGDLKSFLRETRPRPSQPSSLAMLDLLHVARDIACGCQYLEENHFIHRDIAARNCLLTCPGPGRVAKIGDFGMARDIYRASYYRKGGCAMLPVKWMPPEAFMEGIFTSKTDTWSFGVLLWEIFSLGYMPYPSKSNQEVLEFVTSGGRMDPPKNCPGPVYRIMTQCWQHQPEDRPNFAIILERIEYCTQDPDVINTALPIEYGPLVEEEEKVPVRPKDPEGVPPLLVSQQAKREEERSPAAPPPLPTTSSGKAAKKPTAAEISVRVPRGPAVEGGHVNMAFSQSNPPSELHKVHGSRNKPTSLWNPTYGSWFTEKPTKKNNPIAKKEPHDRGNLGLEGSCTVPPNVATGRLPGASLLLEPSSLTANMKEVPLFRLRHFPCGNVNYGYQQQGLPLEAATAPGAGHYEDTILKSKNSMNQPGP
PROTOCOL: ALK Inhibition in Enzyme Assay (Lance TR-FRET kinase assay)
Type: biochemical
Each record here notes measured IC50.

Use these answered entries as a reference point.
> print(dat)
                        structure.as.smiles  recorded.result
1  COC(=O)[C@H]1CC[C@@H](n2/c(=N/C(=O)c3ccc(F)cc3)[nH]c3ccc(CO)cc32)CC1          < 50 nM
2  COC(=O)[C@H]1CC[C@@H](n2c(NC(=O)c3cccc(C(F)(F)F)c3)nc3ccc(CN4CCCCC4)cc32)CC1          < 50 nM
3  CC(C)NC(=O)[C@H]1CC[C@@H](n2/c(=N/C(=O)c3ccc(F)cc3)[nH]c3ccc(CN4CCC(F)(F)CC4)cc32)CC1          < 50 nM

Exercise: For CC(C)NC(=O)[C@H]1CC[C@@H](n2/c(=N/C(=O)C3CCCCC3)[nH]c3cnc(OCCN4CCCCC4)cc32)CC1 , write its IC50.
Solution: 5000 to 10000 nM

Exercise: For CC(C)NC(=O)[C@H]1CC[C@@H](n2/c(=N/C(=O)c3ccc(C#N)cc3)[nH]c3cnc(OCCN4CCC(C(C)(C)O)CC4)cc32)CC1 , write its IC50.
Solution: < 50 nM

Exercise: For CC(C)NC(=O)[C@H]1CC[C@@H](n2/c(=N/C(=O)c3ccc(F)c(C(F)(F)F)c3)[nH]c3cnc(OCCN4CCCCC4)cc32)CC1 , write its IC50.
Solution: 50 to 100 nM

Exercise: For CC(C)(O)C1CCN(Cc2ccc3[nH]/c(=N\C(=O)c4ccc(F)cc4)n([C@H]4CC[C@@H](C(=O)N5CCNCC5)CC4)c3c2)CC1 , write its IC50.
Solution: < 50 nM

Exercise: For CC(C)NC(=O)[C@H]1CC[C@@H](n2/c(=N/C(=O)c3ccc(C#N)cc3)[nH]c3cnc(OCCO)cc32)CC1 , write its IC50.
Solution: < 50 nM

Exercise: For CC(=O)N[C@H]1CC[C@H](n2/c(=N/C(=O)c3ccc(F)cc3)[nH]c3ccc(CN4CCC(C(C)(C)O)CC4)cc32)CC1 , write its IC50.
Solution: 50 to 100 nM

----------
ASSAYED_TARGET: wild-type human ALK (cytoplasmic domain, amino acids 1058-1620, N-terminal GST fusion) (Homo sapiens)
Construct: The cytoplasmic domain (amino acids 1058-1620) of wild-type human ALK; GST (N); made in house; host or cells: SF9 insect cells
PROTOCOL: ALK Inhibition in Enzyme Assay (Lance TR-FRET kinase assay)
Assay type: biochemical
Each record here notes measured IC50.

Use these answered entries as a reference point.
> print(dat)
                                   molecule  recorded.result
1  CNC(=O)[C@H]1CC[C@@H](n2/c(=N/C(=O)c3ccc(F)cc3)[nH]c3ccc(CN4CCCCC4)cc32)CC1 [Example 15]          < 50 nM
2  CC(C)NC(=O)[C@H]1CC[C@@H](n2/c(=N/C(=O)c3ccc(F)cc3)[nH]c3ccc(N4CCOCC4)cc32)CC1 [Example 218]          < 50 nM
3  COC(=O)[C@H]1CC[C@@H](n2/c(=N/C(=O)c3ccc(F)cc3)[nH]c3ccc(CN4CCOCC4)cc32)CC1 [Example 85]          < 50 nM
4  CC(C)C(=O)N[C@H]1CC[C@@H](n2/c(=N/C(=O)c3ccc(F)cc3)[nH]c3ccc(CN4CCC(C(C)(C)O)CC4)cc32)CC1 [Example 227]     50 to 100 nM
5  CC(C)NC(=O)[C@H]1CC[C@@H](n2/c(=N/C(=O)c3ccc(F)cc3)[nH]c3ccc(CN4CCC(S(=O)(=O)O)CC4)cc32)CC1 [Example 181]          < 50 nM

Please turn your attention to the following entry.
Exercise: For CNC(=O)[C@H]1CC[C@H](n2/c(=N/C(=O)c3cc(F)cc(F)c3)[nH]c3cnc(OCCN4CCCCC4)cc32)CC1 [Example 249] , write its IC50.
Solution: 1000 to 5000 nM
